B1: 1-phosphatidylinositol 4,5-bisphosphate phosphodiesterase gamma-2, residues 772 to 827; numbered along this chain, P16885 (parent)
chain: RTVKALYDYKAKRSDELSFCRGALIHNVSKEPGGWWKGDYGTRIQQYFPSNYVEDI

Variants of: B1
Experiment: abundance fitness (aPCA) (normalised: wild type 0, dead -1); higher = more abundant; growth selection in yeast, the domain comes from the species named
Settings: Homo sapiens
Each record here notes measured abundance fitness.
// no unit string in output, number only

Look over these answered cases.
- residue_string: "RTVKALYDYKAKRSDHLSFCRGALIHNVSKEPGGWWKGDYGTRIQQYFPSNYVEDI"
  result_number: -0.201
- residue_string: "RTVKALYDYKAYRSDELSFCRGALIHNVSKEPGGWWKGDYGTRIQQYFPSNYVEDI"
  result_number: -0.48
- residue_string: "RTVKALYDYKAKRSDELSFCRGALIHNVSKEPGGWWKGWYGTRIQQYFPSNYVEDI"
  result_number: -0.82
- residue_string: "RTVKALYDYKAKRSDELSFCRGALIHNVSKEPGGWWKGDYGTCIQQYFPSNYVEDI"
  result_number: -0.111
- residue_string: "RTVKALYDYKAKRSDELSFCRGALIHNVSKEPGLWWKGDYGTRIQQYFPSNYVEDI"
  result_number: -0.083

What value of abundance fitness has been recorded for this entry: RTVKALYDYKAKRSDELSFCRGALIHNVSKEPGGWWKGDYGTRIQQFFPSNYVEDI
-0.051

Which measured abundance fitness value corresponds to RTVKALYDYKAKRSDELSFCRGILIHNVSKEPGGWWKGDYGTRIQQYFPSNYVEDI ?
-0.613

Name the recorded abundance fitness for RTVKALYDYKAKRSDELSFCRGALIHNVSKPPGGWWKGDYGTRIQQYFPSNYVEDI .
-0.291

Name the reported abundance fitness value associated with the variant RTVKALYDYKAKRSDELSFIRGALIHNVSKEPGGWWKGDYGTRIQQYFPSNYVEDI
-0.216

For the variant RTVKALYDCKAKRSDELSFCRGALIHNVSKEPGGWWKGDYGTRIQQYFPSNYVEDI , what abundance fitness is on record?
0.089

State the recorded abundance fitness for this entry: RTVKALYDYKAKRSDELSCCRGALIHNVSKEPGGWWKGDYGTRIQQYFPSNYVEDI
-0.64

Ref: the Human Domainome abundance scans (Beltran et al. 2025)
